- Tested on: HOP-62 NSCLC
- Experimental protocol: NCI tumour cell line growth inhibition, 48 h
Please provide measured GI50 for the entries that follow.

Form field GI50, entry Nc1nc(F)nc2c1ncn2C1OC(CO)C(O)C1O (centres undefined) : 13.6 µM

Form field GI50, entry CCSc1nc(SCC)c2cn[nH]c2n1 : 18.6 µM

Form field GI50, entry COc1cc(/C=C/c2cc(/C=C/c3ccc(O)c(OC)c3)n(C(=O)Nc3ccc(C)cc3C)n2)ccc1O : 0.442 µM

Form field GI50, entry COc1ccc(-c2nn(-c3ccc(NC(=O)Nc4cc(C(F)(F)F)cc(C(F)(F)F)c4)cc3)cc2-c2ccncc2)cc1Cl : 3.68 µM

Form field GI50, entry CC(=O)C(=CN1CCN(C(=O)c2ccco2)C1=S)C(C)=O : 22 µM

Form field GI50, entry Nc1ccn(C2CCC(CO)O2)c(=O)n1 (centres undefined) : > 1000 µM

Form field GI50, entry CC(C)(C[C@H]1CN(S(=O)(=O)c2cccc(C(F)(F)F)c2)c2cc(-c3cc(F)cc(OC(F)F)c3)ccc2O1)C(=O)O : 6.65 µM

Form field GI50, entry CCn1c(SCc2ccc(C)cc2)nnc1-c1nn(-c2ccc(Cl)cc2Cl)c(-c2ccc(Cl)cc2)c1C : 2.73 µM

Form field GI50, entry C#Cc1c(I)n(C2OC(CO[Si](C)(C)C(C)(C)C)C3OC(C)(C)OC32)c(=O)[nH]c1=O (centres undefined) : 20 µM

----------
- System: KM12 colon
- Experimental protocol: NCI tumour cell line growth inhibition, 48 h
Please provide measured TGI for the entries that follow.
# number only, unit µM dropped from output

GET /values?item= O=C(O)/C=c1/c2ccccc2n2nc3ccccc3c12 &system= KM12 colon returns TGI: 80.7

GET /values?item= C[C@H](O)C(=O)N1CCC(CCn2c(Sc3cc4c(cc3Br)OCO4)nc3c(N)ncnc32)CC1 &system= KM12 colon returns TGI: 9.86

GET /values?item= CCN(CC)c1ccc(N=Nc2ccc(-c3nc4ccc[n+](C)c4s3)cc2)cc1 &system= KM12 colon returns TGI: 10.9

GET /values?item= O=C(/C=C\c1ccc(NCc2ccc(C(=O)O)cc2)cc1)CCl &system= KM12 colon returns TGI: 32

----------
- Test system: K-562 leukemia
- Experimental protocol: NCI tumour cell line growth inhibition, 48 h
Please provide measured TGI for the entries that follow.

Form field TGI, entry CC1=CC(C/C(C)=C/COc2ccc3ccc(=O)oc3c2)OC1=O (stereo unspecified) : > 100 µM

Form field TGI, entry CC(=O)OCC1OC(n2c3c(cc(C#N)c2=S)CCCCC3)C(OC(C)=O)C(OC(C)=O)C1OC(C)=O (stereo unspecified) : > 100 µM

Form field TGI, entry Cn1c2ccccc2c(=O)c2cccc(C(=O)NC(CCCN=C(N)N)C(=O)O)c21 (stereo unspecified) : > 100 µM

Form field TGI, entry N#Cc1cccnc1Cl : > 100 µM

Form field TGI, entry CC1=NNC(=O)C1C(CC(=O)c1c[nH]c2ccccc12)C(=O)O (stereo unspecified) : > 100 µM

Form field TGI, entry O=C1OC2CCCC[C@@H]2C2C[C@]34CCCCC3[C@@H](C(=O)O4)C12 (stereo partly specified) : > 100 µM

Form field TGI, entry CC(=O)N[C@H]1CSSC[C@@H](C(N)=O)NC(=O)[C@H](C(C)C)NC(=O)[C@H](C)NC(=O)[C@H](Cc2cnc[nH]2)NC1=O : > 100 µM

Form field TGI, entry CCCCCCCCCCCC(=O)OCC1OC(OC)C(NC(=O)N(CCCl)N=O)C(O)C1O (stereo unspecified) : 31.1 µM

Form field TGI, entry O=c1c(C(c2ccc(Cl)cc2)c2c(O)c3ccccc3n(-c3ccccc3)c2=O)c(O)c2ccccc2n1-c1ccccc1 : > 100 µM

Form field TGI, entry COc1cccc(/C=N/n2c(C)n[nH]c2=O)c1 : > 100 µM

Form field TGI, entry CC1=C(C(=O)Nc2ccc(F)c(Cl)c2)C(c2cccc(O)c2)NC(=O)N1 (stereo unspecified) : > 100 µM

Form field TGI, entry COc1ccc(N2C(=O)CSC2c2c[nH]c3ccccc23)cc1 (stereo unspecified) : > 100 µM

Form field TGI, entry O=C(Nc1c(Cl)cc([N+](=O)[O-])cc1Cl)C(=O)C(C1OC(=O)c2ccccc21)[N+](=O)[O-] (stereo unspecified) : > 100 µM

Form field TGI, entry CN(C)c1cc[c]([Sn]([c]2ccc(N(C)C)cc2)([c]2ccc(N(C)C)cc2)[c]2ccc(N(C)C)cc2)cc1 : 7.33 µM

Form field TGI, entry C/C(CC(=O)NCCc1ccccc1)=N\NC(=O)C[n+]1ccccc1 : > 100 µM

Form field TGI, entry CC(=O)NC1c2ccccc2C(C)(C)C12CCC1(CC2)OCCO1 (stereo unspecified) : > 100 µM

Form field TGI, entry COc1nc2nccnc2c(=O)n1C : > 10 µM

Form field TGI, entry COC(=O)C1=C(C)NC(C)=C(C(=O)OC)C1c1nc2sccn2c1[N+](=O)[O-] : > 100 µM

Form field TGI, entry NNC(=O)CSc1nc2ccccc2c(=O)n1N : > 100 µM

Form field TGI, entry Nc1ccc(S2(c3ccc(N)cc3)C=C(c3ccccc3)C(c3ccccc3)=C2)cc1 : > 100 µM

Form field TGI, entry Br[C](Br)(Br)[Hg][c]1ccccc1 : 5.02 µM

----------
- Tested on: MALME-3M melanoma
- Experimental protocol: NCI tumour cell line growth inhibition, 48 h
Please provide measured TGI for the entries that follow.
# number only, unit µM dropped from output

Form field TGI, entry C=C1CN2CC(=C)CN(C1)CS(=O)(=O)N1CC(=C)CN(CC(=C)C1)S(=O)(=O)N1CC(=C)CN(CC(=C)C1)S(=O)(=O)C2 : 86.4

Form field TGI, entry CC(CO)(CO)NCCCCn1ccc2c1C(=O)c1c(c(O)c3ccccc3c1O)C2=O : 7.38

Form field TGI, entry COC1C=COC2(C)Oc3c(C)c(O)c4c(O)c(c(C5SCCS5)c(O)c4c3C2=O)NC(=O)C(C)=C/C=C\C(C)C2OC(C)(C)OC(C2C)C(C)C(OC(C)=O)C1C (stereo not given) : 36.5

Form field TGI, entry C=C1C(=O)C=C[C@]2(C)CC[C@H]3C(=C)C(=O)O[C@@H]3[C@@H]12 : 5.18

Form field TGI, entry CN(C)C(=O)[C@H](O)[C@H](Cc1ccccc1)NC(=O)c1cc2cc(Cl)ccc2[nH]1 : 44.1

Form field TGI, entry O=C(CCC1OCCO1)Nc1cc(NCc2ccccc2)ccc1OCc1ccccc1 : 62.7

Form field TGI, entry CC1=C(O)C(=O)C=C2C1=CC=C1[C@@]2(C)CC[C@@]2(C)[C@@H]3C[C@](C)(C(=O)O)CC[C@]3(C)CC[C@]12C : 0.152

Form field TGI, entry O=c1c(C(c2ccc(Cl)cc2)c2c(O)c3ccccc3n(-c3ccccc3)c2=O)c(O)c2ccccc2n1-c1ccccc1 : 60.1

Form field TGI, entry C=CCOc1ccc(C2(O)c3ccccc3C3=NCCCN32)cc1 (stereo not given) : 27.4

----------
Please provide measured TGI for the entries that follow.
- Test system: SR leukemia
- Experimental protocol: NCI tumour cell line growth inhibition, 48 h

Form field TGI, entry COc1cc2c3c(c1OC)C1(C=CC(=O)C=C1)C[C@H]3N(C)CC2 : > 100 µM

Form field TGI, entry Br[C](Br)(Br)[Hg][c]1ccccc1 : 20.4 µM

Form field TGI, entry COc1ccc(CC2NCCc3cc(OC)c(OC)cc32)cc1Br (configuration not stated) : 74.6 µM

Form field TGI, entry C[N+]12CCCCC1C(CN1C(=O)Cc3c4ccccc4c(c4ccccc34)CC1=O)CCC2 (configuration not stated) : > 100 µM

Form field TGI, entry Oc1cccc(-c2nc3cc(F)ccc3s2)c1 : 47.8 µM

Form field TGI, entry O=C1Nc2ccc(F)cc2/C1=C/c1ccc[nH]1 : > 25 µM

Form field TGI, entry COc1ccc(OC)c2c(C(=O)O)c(Cc3ccccc3)ccc12 : > 100 µM

Form field TGI, entry Nc1ccc(S(=O)(=O)Nc2nccs2)cc1 : > 100 µM

Form field TGI, entry O=c1cc(NC2CCN(CCCc3ccccc3)CC2)c2cc(Cl)ccc2o1 : 28.3 µM

Form field TGI, entry O=C1/C(=C/c2ccc(Cl)cc2)CSc2ccccc21 : > 100 µM

Form field TGI, entry COc1ccc2c(c1)CCN1CCc3ccccc3CC21 (configuration not stated) : > 100 µM

Form field TGI, entry COc1cc(/C=C(\C#N)c2ccccc2)cc(OC)c1 : > 100 µM

----------
- System: CAKI-1 renal
- Experimental protocol: NCI tumour cell line growth inhibition, 48 h
Readout label: TGI

Form field TGI, entry COc1ccc2c(cnc3c4cc(OC)c(OC)cc4ccc23)c1 : > 100 µM

Form field TGI, entry Cc1ccc(-c2nc3ccc(Cl)cc3c(=O)n2N2C(=O)CSC2c2ccccc2Cl)cc1 (stereo unspecified) : > 100 µM

Form field TGI, entry O=C1NC2OC(C(O)CO)C(O)C2O1 (stereo unspecified) : > 100 µM

Form field TGI, entry O=C1CCCC[C@H]1[C@H]1CCC[C@@H]([C@H]2CCCCC2=O)C1=O : > 100 µM

Form field TGI, entry O=c1cc(NC2CCN(CCCc3ccccc3)CC2)c2cc(Cl)ccc2o1 : 25.6 µM

Form field TGI, entry CC(=O)[C@@]1(O)CC[C@H]2[C@@H]3C[C@H](C)C4=CC(=O)C=C[C@]4(C)[C@@]3(F)[C@@H](O)C[C@@]21C : > 100 µM

Form field TGI, entry NC(CCC(=O)NC(CSCC1C(=O)Nc2ccccc21)C(=O)NCC(=O)O)C(=O)O (stereo unspecified) : 9.95 µM

Form field TGI, entry C=C(Cl)C(C)(Cl)CCC(Br)C(C)(C)Cl (stereo unspecified) : 50.1 µM

Form field TGI, entry C/C(N=NC(=S)N(C)C)=C1\C=CC=CN1O : > 100 µM

Form field TGI, entry C[N+]12CCCCC1C(CN1C(=O)Cc3c4ccccc4c(c4ccccc34)CC1=O)CCC2 (stereo unspecified) : > 100 µM

Form field TGI, entry CN1[C@@H]2C[C@@H](OC(=O)[C@H](CO)c3ccccc3)C[C@H]1[C@@H]1O[C@@H]12 : > 100 µM

Form field TGI, entry CCOC(=O)C1C2CCC1CC(=NNc1ccc([N+](=O)[O-])cc1[N+](=O)[O-])C2 (stereo unspecified) : > 50 µM

Form field TGI, entry C1C[OH+]CC[OH+]CC[OH+]CC[OH+]CC[OH+]1.[Cl-].[V] : > 100 µM

Form field TGI, entry O=c1cccc(C#CC#CC2=CCCCC2)o1 : 10.3 µM

Form field TGI, entry CCC(=O)ONC(=O)Cn1ccc([N+](=O)[O-])n1 : > 100 µM

Form field TGI, entry O=C(/C=C\c1ccc(NCc2ccc(C(=O)O)cc2)cc1)CCl : 32.8 µM

Form field TGI, entry COc1cc(/C=C(\C#N)c2ccccc2)cc(OC)c1 : > 100 µM

Form field TGI, entry Clc1ccc(C=Nc2ccc3c(c2)Cc2ccccc2-3)c(Cl)c1 : > 100 µM

Form field TGI, entry O=C(O)c1ccc(OCc2nc3cc(C(F)(F)F)ccc3nc2-c2ccccc2)cc1 : 19.6 µM

Form field TGI, entry CC(=O)N[C@H]1CSSC[C@@H](C(N)=O)NC(=O)[C@H](C(C)C)NC(=O)[C@H](C)NC(=O)[C@H](Cc2cnc[nH]2)NC1=O : > 100 µM

Form field TGI, entry CN(C)c1ccc(C2SCC(=O)N2c2ccc(Oc3ccc(Cl)cc3)c(Cl)c2)cc1 (stereo unspecified) : > 100 µM

Form field TGI, entry CC(C)(C)OC(=O)NCCCNC1(c2cc3ccccc3s2)CCCCC1 : 26.8 µM

Form field TGI, entry Nc1ccc(C(=O)N2CCC[C@H]2CO)c(N)c1 : > 100 µM

Form field TGI, entry O=C(CCC1OCCO1)Nc1cc(NCc2ccccc2)ccc1OCc1ccccc1 : 71.3 µM

Form field TGI, entry COc1c(C(C)C)cc2c3c1OC(=O)[C@@]31CCCC(C)(C)C1CC2 (stereo partly specified) : > 100 µM

Form field TGI, entry COc1ccc(/C=C/c2cc(OC)cc(=O)o2)cc1 : > 100 µM

FYI, the data here is from PubChem BioAssay (NCI).
